readout: logP

// known answers, use as guide
chemical_smiles=CC(=O)c1cccc(NC(=O)N(C)C)c1 data_value=0.95
chemical_smiles=CN(C)C(=O)Nc1cccc([N+](=O)[O-])c1 data_value=1.46
chemical_smiles=CON(C)C(=O)Nc1cccc(O)c1 data_value=0.82
chemical_smiles=CON(C)C(=O)Nc1cccc(F)c1 data_value=1.68
chemical_smiles=CON(C)C(=O)Nc1cccc([N+](=O)[O-])c1 data_value=1.64

(I) CON(C)C(=O)Nc1ccc(C(C)=O)cc1
(II) CN(C)C(=O)Nc1cccc(N)c1
IN: Lower logP: I or II ? Write down the label of the entry you select.
OUT: II
(II: -0.1, I: 1.22)

* * *

assay: method code SF, from DOI: 10.1021/jf00121a034
readout: logP

Answered examples (4):
compound=CON(C)C(=O)Nc1cccc(OCCCCOc2ccccc2)c1 readout=logP data_value=3.86
compound=CON(C)C(=O)Nc1cccc(C(C)(C)C)c1 readout=logP data_value=3.21
compound=CON(C)C(=O)Nc1ccc(C(=O)c2ccccc2)cc1 readout=logP data_value=2.86
compound=CN(C)C(=O)Nc1ccc(C2CCCCC2)cc1 readout=logP data_value=3.83

(I) CON(C)C(=O)Nc1ccc(OC(C)CC2CCCCC2)cc1 (configuration not stated)
(II) CON(C)C(=O)Nc1cccc(C(F)(F)F)c1
(III) CON(C)C(=O)Nc1ccccc1
IN: Reorder: logP, max to min. Could you list the labels in the order requested?
OUT: I, II, III

* * *

assay: method code SF, from DOI: 10.1021/jf00121a034
readout: logP

See these solved cases before continuing.
chemical_smiles=CON(C)C(=O)Nc1ccc(F)cc1 readout=logP data_value=1.46
chemical_smiles=CON(C)C(=O)Nc1ccc(CCCc2ccc(-c3ccccc3)cc2)cc1 readout=logP data_value=6.54
chemical_smiles=CON(C)C(=O)Nc1ccc(NS(C)(=O)=O)cc1 readout=logP data_value=0.14
chemical_smiles=CCCCCCCCCCCCOc1ccc(NC(=O)N(C)C)cc1 readout=logP data_value=6.93
chemical_smiles=CON(C)C(=O)Nc1cccc(OCC(=O)C23CC4CC(CC(C4)C2)C3)c1 readout=logP data_value=3.79
chemical_smiles=CC(C)c1ccc(NC(=O)N(C)C)cc1 readout=logP data_value=2.87

(P) CON(C)C(=O)Nc1ccc(CCCc2ccc(Cl)cc2)cc1
(Q) CON(C)C(=O)Nc1ccc([N+](=O)[O-])cc1
(R) CN(C)C(=O)Nc1cccc(OCCc2ccccc2)c1
(S) CON(C)C(=O)Nc1ccc(N)cc1
(T) CCNc1ccc(NC(=O)N(C)OC)cc1
IN: # rank by logP, ascending (min first) State the ranking by listing the labels in the requested order.
OUT: S, T, Q, R, P

* * *

experiment: method code SF, from DOI: 10.1021/jf00121a034
readout: logP

Examples with answers:
compound=CON(C)C(=O)Nc1ccc(OCCc2cccc3ccccc23)cc1 data_value=4.81
compound=CON(C)C(=O)Nc1cccc(CO)c1 data_value=0.62
compound=CCCCc1cccc(NC(=O)N(C)C)c1 data_value=3.23

(I) CCOC(=O)c1ccc(NC(=O)N(C)OC)cc1
(II) CON(C)C(=O)Nc1ccc(CCCCc2ccccc2)cc1
(III) CON(C)C(=O)Nc1ccc(OCC(=O)C23CC4CC(CC(C4)C2)C3)cc1
(IV) CN(C)C(=O)Nc1cccc(O)c1
IN: Rank the 4 compounds: largest logP first, smallest last. Field: ranking. Enter the labels in the order requested.
OUT: II, III, I, IV
(II: 5.15, III: 3.53, I: 2.24, IV: 0.51)

* * *

assay: method code SF, from DOI: 10.1021/jf00121a034
readout: logP

Completed entries (count: 3):
molecule="CON(C)C(=O)Nc1ccc(OCC(=O)C23CC4CC(C2)C4C3)c(Cl)c1 (stereo not drawn)" data_value=4.48
molecule=CON(C)C(=O)Nc1ccc(OCCC2CCCCC2)cc1 data_value=4.46
molecule=CON(C)C(=O)Nc1ccc(OCCCCOc2ccccc2)cc1 data_value=3.86

(I) CON(C)C(=O)Nc1ccc(OCCc2ccc(C)cc2)cc1
(II) CON(C)C(=O)Nc1ccc(C=C(C#N)C#N)cc1
IN: Just tell me: smaller logP value, I or II ? API: response body contains the label of the selected item.
OUT: II

* * *

test: method code SF, from DOI: 10.1021/jf00121a034
readout: logP

chemical_smiles=CON(C)C(=O)Nc1ccc(C2CCCCC2)cc1 data_value=4.08

(I) CON(C)C(=O)Nc1ccc(CCCc2ccccc2)cc1
(II) CON(C)C(=O)Nc1ccc(C(C)C)cc1
IN: API: POST /compare with I and II ; response names the item with higher logP. Record your answer as the label of the chosen record.
OUT: I
(I: 4.67, II: 2.95)
